Just for reference, ChEMBL document CHEMBL3822400 is where these values come from.

assay-notes: Lipophilicity, log P of the compound at pH 7.5 by HPLC method
Format: physicochemical
condition-summary: buffer
logP under 3 gets label 1, anything at or over 3 gets label 0.

| molecule | group-label |
| --- | --- |
| CCc1cc(CC)n2nc(-c3ccc(OC)cc3)c(CC(=O)N3CCC3)c2n1 | label 1 |
| CCc1cc(CC)n2nc(-c3ccc(OC)cc3)c(CC(=O)N(CC)C(C)(C)C)c2n1 | label 0 |
| CCc1cc(CC)n2nc(-c3ccc(OC)cc3)c(CC(=O)N(C)C(C)(C)C)c2n1 | label 0 |
| CCc1cc(CC)n2nc(-c3ccc(OC)cc3)c(CC(=O)N(C(C)C)C(C)C)c2n1 | label 0 |
| CCCCN(CCCC)C(=O)Cc1c(-c2ccc(OC)cc2)nn2c(CC)cc(CC)nc12 | label 0 |
| CCCCCN(CCCCC)C(=O)Cc1c(-c2ccc(OC)cc2)nn2c(CC)cc(CC)nc12 | label 0 |
| CCc1cc(CC)n2nc(-c3ccc(OC)cc3)c(CC(=O)N(C(C)CC)C(C)CC)c2n1 (stereo not given) | label 0 |
| CCc1cc(CC)n2nc(-c3ccc(OC)cc3)c(CC(=O)N(C)c3ccccc3)c2n1 | label 0 |

Please find the next molecule below.
Check if logP falls below 3 for `CCc1cc(CC)n2nc(-c3ccc(OC)cc3)c(CC(=O)N(C)C)c2n1` . label 1
